STUDY TARGET: T1, PaHMG5 (HMG5His) (Podospora anserina, UniProt B2AM17 1-559)
T1 sequence: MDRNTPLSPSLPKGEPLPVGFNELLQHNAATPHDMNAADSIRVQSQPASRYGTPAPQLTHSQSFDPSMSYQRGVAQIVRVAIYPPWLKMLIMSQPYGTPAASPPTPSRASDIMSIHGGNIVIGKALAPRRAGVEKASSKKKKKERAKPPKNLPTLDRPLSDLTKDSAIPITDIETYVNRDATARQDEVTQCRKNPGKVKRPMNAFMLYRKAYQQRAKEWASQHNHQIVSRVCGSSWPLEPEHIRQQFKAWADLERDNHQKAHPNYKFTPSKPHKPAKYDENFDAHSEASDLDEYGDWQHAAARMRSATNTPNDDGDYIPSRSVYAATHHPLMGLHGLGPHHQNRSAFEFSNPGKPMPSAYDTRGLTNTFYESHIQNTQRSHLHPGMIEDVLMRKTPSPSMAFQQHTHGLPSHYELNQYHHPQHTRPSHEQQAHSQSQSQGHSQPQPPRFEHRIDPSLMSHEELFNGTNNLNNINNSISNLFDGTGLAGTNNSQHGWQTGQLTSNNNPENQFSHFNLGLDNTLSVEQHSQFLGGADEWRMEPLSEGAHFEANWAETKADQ
PROTOCOL TEXT: EMSA; 20 mM Tris pH 9.0, 500 mM NaCl, 5 mM beta-mercaptoethanol, 5 mM MgCl2, 5% glycerol, 1.25 ug poly(dI-dC), 11 ul, on ice; 6% gel in 0.25x TBE
MEASUREMENT PARAMETERS: protein: recombinant; tags: C-terminal His6; label: 5'-32P; 33 bp duplex, 1 nt 5' G overhang on each strand
TEST READOUT: binding result

- FMR1 probe (dsDNA) DNA 1: GTGCAGGATAGCCAACAAAGAAATGACTGCCACG DNA 2: GCGTGGCAGTCATTTCTTTGTTGGCTATCCTGCA: binds
- KEF1 (PaHMG9) probe (dsDNA) DNA 1: GATCGTAGCTATAGACAAAGAAAGCAACAGATAG DNA 2: GCTATCTGTTGCTTTCTTTGTCTATAGCTACGAT: binds
- FPR1 probe (dsDNA) DNA 1: GGTGAAGGTGAATAACAAAGAAATACACTGACGG DNA 2: GCCGTCAGTGTATTTCTTTGTTATTCACCTTCAC: binds
- PaHMG8 probe (dsDNA) DNA 1: GTGCAAACGCGGGGACAAAGAAAAAGTCTGGTGC DNA 2: GGCACCAGACTTTTTCTTTGTCCCCGCGTTTGCA: binds
- PaHMG5 probe (dsDNA) DNA 1: GTAGAGAAGCCGGAACAAAGAAAGGAACAAGCAG DNA 2: GCTGCTTGTTCCTTTCTTTGTTCCGGCTTCTCTA: binds

Shift focus to the following entry.
Can you share its binding result? I mean this binder: mtHMG1 probe (dsDNA) DNA 1: GGAGGGCATCTTCAACAAAGAATCTCGGCAAATA DNA 2: GTATTTGCCGAGATTCTTTGTTGAAGATGCCCTC
binds

Origin of values: paper PMC3730723
